Measured values drawn from paper PMC3344817 for this set.

Measured RP (relative potency), CEM cells, listed per entry.
Tested on: CEM T-lymphocytes
Experiment: Cytotoxicity
Format: cell-based, human
Details: IC50 of 2 divided by IC50 of the compound
Number, no unit, nothing else.

Known RP (relative potency), CEM cells results, listed for orientation:
{"MOL": "O=C1C(=Cc2ccccc2)CN(C(=O)CC(=O)N2CC(=Cc3ccccc3)C(=O)C(=Cc3ccccc3)C2)CC1=Cc1ccccc1", "RP (relative potency), CEM cells": 9.3}
{"MOL": "O=C1C(=Cc2ccccc2)CN(C(=O)c2ccccc2C(=O)N2CC(=Cc3ccccc3)C(=O)C(=Cc3ccccc3)C2)CC1=Cc1ccccc1", "RP (relative potency), CEM cells": 1.3}
{"MOL": "O=C1C(=Cc2ccccc2)CN(C(=O)C#CC(=O)N2CC(=Cc3ccccc3)C(=O)C(=Cc3ccccc3)C2)CC1=Cc1ccccc1", "RP (relative potency), CEM cells": 0.6}
{"MOL": "O=C1C(=Cc2ccccc2)CN(C(=O)CCC(=O)N2CC(=Cc3ccccc3)C(=O)C(=Cc3ccccc3)C2)CC1=Cc1ccccc1", "RP (relative potency), CEM cells": 1.5}
{"MOL": "O=C1C(=Cc2ccccc2)CN(C(=O)CCCC(=O)N2CC(=Cc3ccccc3)C(=O)C(=Cc3ccccc3)C2)CC1=Cc1ccccc1", "RP (relative potency), CEM cells": 0.9}

Here's the next entry for you.
Request: What value of RP (relative potency), CEM cells on CEM T-lymphocytes does O=C1C(=Cc2ccccc2)CN(C(=O)C=CC=CC(=O)N2CC(=Cc3ccccc3)C(=O)C(=Cc3ccccc3)C2)CC1=Cc1ccccc1 have?
Response: 0.1
